// reported ΔKd (fold) for each item listed
- TESTED_TARGET: T1, IGF1R-Fc (extracellular domain of human IGF1R aa 1-932 fused to hinge and constant regions of human IgG1) (human, UniProt P08069 31-932)
- T1 construct: range 1-932; made in house by transient transfection, purified on Protein A; also called IGF-IR-Fc; not shown: hinge and constant regions of human IgG1
- PROCEDURE_DETAILS: SPR Biacore, IGF1R-Fc; against I1-GS10-E5 pegylated
State the answer as a number, implicitly in fold.

Field: example entries. Status: answers known.
I1-GS10-E5(S91C) pegylated (designed binder, PEG on Cys at position 91 of E5 (position of SEQ ID NO: 1), also called I1-GS10-E5(S91C)(8)) MGVSDVPRDLEVVAATPTSLLISWSARLKVARYYRITYGETGGNSPVQEFTVPKNVYTATISGLKPGVDYTITVYAVTRFRDYQPISINYRTEIEKGSGSGSGSGSGSGSGSGSGSVSDVPRDLEVVAATPTSLLISWWAPVDRYQYYRITYGETGGNSPVQEFTVPRDVYTATISGLKPGVDYTITVYAVTDYKPHADGPHTYHESPICINYRTEHHHHHH    0.9
I1(S62C)-GS10-E5 pegylated (designed binder, PEG on Cys at position 62 of I1 (position of SEQ ID NO: 1), also called I1(S62C)-GS10-E5(5)) MGVSDVPRDLEVVAATPTSLLISWSARLKVARYYRITYGETGGNSPVQEFTVPKNVYTATICGLKPGVDYTITVYAVTRFRDYQPISINYRTEIEKGSGSGSGSGSGSGSGSGSGSVSDVPRDLEVVAATPTSLLISWWAPVDRYQYYRITYGETGGNSPVQEFTVPRDVYTATISGLKPGVDYTITVYAVTDYKPHADGPHTYHESPISINYRTEHHHHHH    0.4
I1-GS10-E5-GSGC pegylated (designed binder, PEG on the Cys of the GSGC tail of E5, alternative clone of I1-GS10-E5 pegylated; also called I1-GS10-E5-GSGC(4)) MGVSDVPRDLEVVAATPTSLLISWSARLKVARYYRITYGETGGNSPVQEFTVPKNVYTATISGLKPGVDYTITVYAVTRFRDYQPISINYRTEIEKGSGSGSGSGSGSGSGSGSGSVSDVPRDLEVVAATPTSLLISWWAPVDRYQYYRITYGETGGNSPVQEFTVPRDVYTATISGLKPGVDYTITVYAVTDYKPHADGPHTYHESPISINYRTEGSGCHHHHHH    1

The record that follows has no ΔKd (fold) shown yet.
// query ΔKd (fold) value for entry I1-GS10-E5(S62C) pegylated (designed binder, PEG on Cys at position 62 of E5 (position of SEQ ID NO: 1), also called I1-GS10-E5(S62C)(6)) MGVSDVPRDLEVVAATPTSLLISWSARLKVARYYRITYGETGGNSPVQEFTVPKNVYTATISGLKPGVDYTITVYAVTRFRDYQPISINYRTEIEKGSGSGSGSGSGSGSGSGSGSVSDVPRDLEVVAATPTSLLISWWAPVDRYQYYRITYGETGGNSPVQEFTVPRDVYTATICGLKPGVDYTITVYAVTDYKPHADGPHTYHESPISINYRTEHHHHHH 1
